Biological target: T1, mouse LAG-3 protein with hFc tag (mLAG-3-hFc protein) (mouse; human, UniProt Q61790 24-442)
T1 construct: Made in HEK293 cells; also called mouse LAG-3 extracellular domain protein; not shown: human IgG Fc fragment (hFc) of the pCpC vector
T1 sequence: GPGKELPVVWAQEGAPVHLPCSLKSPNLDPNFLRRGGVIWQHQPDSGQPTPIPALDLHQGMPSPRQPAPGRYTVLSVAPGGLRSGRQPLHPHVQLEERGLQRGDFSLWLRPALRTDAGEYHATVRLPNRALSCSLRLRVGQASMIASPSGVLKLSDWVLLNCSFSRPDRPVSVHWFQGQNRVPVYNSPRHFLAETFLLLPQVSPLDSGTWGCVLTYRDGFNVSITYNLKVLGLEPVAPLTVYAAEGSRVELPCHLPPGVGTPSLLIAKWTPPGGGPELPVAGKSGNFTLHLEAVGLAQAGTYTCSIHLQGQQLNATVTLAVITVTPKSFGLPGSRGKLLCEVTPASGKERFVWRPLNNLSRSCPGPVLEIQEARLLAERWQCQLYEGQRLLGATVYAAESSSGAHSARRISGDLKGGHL
Test: ELISA, mLAG-3-hFc coated; 66.6670 nM
Attribute Measured: OD450 (OD450)
Write the answer as a number in OD450, unit excluded.

A selection of reference data follows.
409D4E10 (LAG-3 mouse-human chimeric antibody) (antibody, V domains shown) VH: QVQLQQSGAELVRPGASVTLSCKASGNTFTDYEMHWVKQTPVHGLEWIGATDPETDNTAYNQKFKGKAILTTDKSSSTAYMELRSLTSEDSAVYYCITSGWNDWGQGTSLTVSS VL: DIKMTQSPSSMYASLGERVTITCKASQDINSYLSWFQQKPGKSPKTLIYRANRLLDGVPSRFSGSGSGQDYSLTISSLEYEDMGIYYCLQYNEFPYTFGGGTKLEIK	1.06
105F1E10 (LAG-3 mouse-human chimeric antibody) (antibody, V domains shown) VH: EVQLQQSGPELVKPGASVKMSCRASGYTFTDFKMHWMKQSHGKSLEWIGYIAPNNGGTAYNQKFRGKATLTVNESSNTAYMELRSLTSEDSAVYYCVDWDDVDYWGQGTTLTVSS VL: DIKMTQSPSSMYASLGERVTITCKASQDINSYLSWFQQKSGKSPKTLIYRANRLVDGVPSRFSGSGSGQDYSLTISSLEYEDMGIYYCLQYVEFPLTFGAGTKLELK	0.54
556F6B8 (LAG-3 mouse-human chimeric antibody) (antibody, V domains shown, also called 556F8B8) VH: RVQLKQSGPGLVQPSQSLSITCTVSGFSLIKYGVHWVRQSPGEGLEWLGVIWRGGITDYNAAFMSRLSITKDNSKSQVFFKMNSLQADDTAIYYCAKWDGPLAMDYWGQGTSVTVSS VL: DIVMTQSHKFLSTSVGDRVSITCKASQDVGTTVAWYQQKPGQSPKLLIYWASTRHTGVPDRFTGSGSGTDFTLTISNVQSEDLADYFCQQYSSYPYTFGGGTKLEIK	1.08
409B11E12 (LAG-3 mouse-human chimeric antibody) (antibody, V domains shown) VH: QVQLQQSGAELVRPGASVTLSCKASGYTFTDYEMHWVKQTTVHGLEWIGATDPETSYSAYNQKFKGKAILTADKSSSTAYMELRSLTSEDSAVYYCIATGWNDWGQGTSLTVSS VL: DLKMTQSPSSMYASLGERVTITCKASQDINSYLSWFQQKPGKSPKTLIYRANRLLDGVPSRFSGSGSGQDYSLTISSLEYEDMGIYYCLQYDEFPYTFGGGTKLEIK	1.1

Moving on to the next binder.
// query OD450 value for entry 405B8H3 (LAG-3 mouse-human chimeric antibody) (antibody, V domains shown, also called mouse-human chimeric antibody 405B8H3) VH: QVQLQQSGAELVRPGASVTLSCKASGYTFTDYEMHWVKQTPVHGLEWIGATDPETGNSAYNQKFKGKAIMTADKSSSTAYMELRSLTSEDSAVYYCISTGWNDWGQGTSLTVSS VL: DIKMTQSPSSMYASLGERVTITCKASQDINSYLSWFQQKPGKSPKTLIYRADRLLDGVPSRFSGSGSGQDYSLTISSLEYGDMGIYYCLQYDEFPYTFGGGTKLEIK
// result 1.1
